Collected Measured concentration, Autosampler for 12 h values appear next to each entry.
Assay: Stability of analytes in rat plasma (QC samples under four storage conditions)
Format: in vitro ADME
Details: spiked concentration 5 ng/mL, n = 6
assay-endpoint: Measured concentration, Autosampler for 12 h (ng/mL)

{"columns": ["compound", "unit-info", "reported-measurement"],
 "data": [
  ["O=C(/C=C/c1ccc(O)c(O)c1)O[C@H]1[C@H](O)C[C@](O)(C(=O)O)C[C@H]1O", "ng/mL", 5.0],
  ["O=C(/C=C/c1ccc(O)c(O)c1)O[C@@H]1C[C@](O)(C(=O)O)C[C@@H](O)[C@H]1O", "ng/mL", 5.1],
  ["COc1ccc(-c2cc(=O)c3c(O)cc(O)cc3o2)cc1", "ng/mL", 5.3],
  ["O=c1cc(-c2ccc(O)cc2)oc2cc(O)cc(O)c12", "ng/mL", 5.4],
  ["O=C(/C=C/c1ccc(O)c(O)c1)O[C@@H]1[C@H](O)C[C@@](O)(C(=O)O)C[C@H]1OC(=O)/C=C/c1ccc(O)c(O)c1", "ng/mL", 4.6],
  ["O=c1cc(-c2ccc(O)cc2)oc2cc(O[C@@H]3O[C@H](CO)[C@@H](O)[C@H](O)[C@H]3O)cc(O)c12 [Apigenin 7-glucoside]", "ng/mL", 4.3],
  ["O=c1c(O[C@@H]2O[C@H](CO)[C@H](O)[C@H](O)[C@H]2O)c(-c2ccc(O)c(O)c2)oc2cc(O)cc(O)c12 [Hyperoside]", "ng/mL", 3.9]
]}

====

Assay: Stability of analytes in rat plasma (QC samples under four storage conditions)
Format: in vitro ADME
Conditions: spiked concentration 50 ng/mL, n = 6
assay-endpoint: Measured concentration, Autosampler for 12 h

{"columns": ["molecule", "reported-measurement"],
 "data": [
  ["COc1ccc(-c2cc(=O)c3c(O)cc(O)cc3o2)cc1 [Acacetin]", "47.8 ± 0.7 ng/mL"],
  ["O=c1cc(-c2ccc(O)cc2)oc2cc(O[C@@H]3O[C@H](CO)[C@@H](O)[C@H](O)[C@H]3O)cc(O)c12 [Apigenin 7-glucoside]", "44.5 ± 0.7 ng/mL"],
  ["O=C(/C=C/c1ccc(O)c(O)c1)O[C@H]1[C@H](O)C[C@](O)(C(=O)O)C[C@H]1O [Cryptochlorogenic acid]", "44.5 ± 1.3 ng/mL"],
  ["O=C(/C=C/c1ccc(O)c(O)c1)O[C@@H]1C[C@](O)(C(=O)O)C[C@@H](O)[C@H]1O [Chlorogenic acid]", "43.5 ± 0.7 ng/mL"]
]}

====

Assay: Stability of analytes in rat plasma (QC samples under four storage conditions)
Format: in vitro ADME
Settings: spiked concentration 1000 ng/mL, n = 6
Measured Measured concentration, Room temperature for 6 h values are reported for all entries that follow.
assay-endpoint: Measured concentration, Room temperature for 6 h (ng/mL)

{"columns": ["molecule", "unit-info", "reported-measurement"],
 "data": [
  ["COc1ccc(-c2cc(=O)c3c(O)cc(O)cc3o2)cc1", "ng/mL", 1126.2],
  ["O=c1cc(-c2ccc(O)cc2)oc2cc(O[C@@H]3O[C@H](CO)[C@@H](O)[C@H](O)[C@H]3O)cc(O)c12 [Apigenin 7-glucoside]", "ng/mL", 1086.7],
  ["O=c1cc(-c2ccc(O)cc2)oc2cc(O)cc(O)c12", "ng/mL", 1112.4],
  ["O=C(/C=C/c1ccc(O)c(O)c1)O[C@@H]1C[C@](O)(C(=O)O)C[C@@H](O)[C@H]1O", "ng/mL", 1079.2],
  ["O=C(/C=C/c1ccc(O)c(O)c1)O[C@H]1[C@H](O)C[C@](O)(C(=O)O)C[C@H]1O", "ng/mL", 1012.9],
  ["O=C(/C=C/c1ccc(O)c(O)c1)O[C@@H]1[C@H](O)C[C@@](O)(C(=O)O)C[C@H]1OC(=O)/C=C/c1ccc(O)c(O)c1", "ng/mL", 1049.2]
]}

====

# Measured concentration, -80°C for 14 days annotations
Assay: Stability of analytes in rat plasma (QC samples under four storage conditions)
Assay type: in vitro ADME
Settings: spiked concentration 50 ng/mL, n = 6
assay-endpoint: Measured concentration, -80°C for 14 days

{"columns": ["molecule", "reported-measurement"],
 "data": [
  ["COc1ccc(-c2cc(=O)c3c(O)cc(O)cc3o2)cc1", "50.5 ± 0.7 ng/mL"],
  ["O=C(/C=C/c1ccc(O)c(O)c1)O[C@@H]1C[C@](O)(C(=O)O)C[C@@H](O)[C@H]1O", "44.4 ± 0.3 ng/mL"],
  ["O=c1c(O[C@@H]2O[C@H](CO)[C@H](O)[C@H](O)[C@H]2O)c(-c2ccc(O)c(O)c2)oc2cc(O)cc(O)c12 [Hyperoside]", "50.3 ± 1.8 ng/mL"],
  ["O=C(/C=C/c1ccc(O)c(O)c1)O[C@H]1[C@H](O)C[C@](O)(C(=O)O)C[C@H]1O", "46.7 ± 1.4 ng/mL"],
  ["O=c1cc(-c2ccc(O)cc2)oc2cc(O[C@@H]3O[C@H](CO)[C@@H](O)[C@H](O)[C@H]3O)cc(O)c12 [Apigenin 7-glucoside]", "51.1 ± 0.4 ng/mL"],
  ["O=c1cc(-c2ccc(O)cc2)oc2cc(O)cc(O)c12", "49.3 ± 1.9 ng/mL"],
  ["O=C(/C=C/c1ccc(O)c(O)c1)O[C@@H]1[C@H](O)C[C@@](O)(C(=O)O)C[C@H]1OC(=O)/C=C/c1ccc(O)c(O)c1", "43.3 ± 0.3 ng/mL"]
]}

====

Test: Stability of analytes in rat plasma (QC samples under four storage conditions)
Format: in vitro ADME
Settings: spiked concentration 1000 ng/mL, n = 6
// reported Measured concentration, -80°C for 14 days for each item listed
assay-endpoint: Measured concentration, -80°C for 14 days

{"columns": ["compound", "reported-measurement"],
 "data": [
  ["O=C(/C=C/c1ccc(O)c(O)c1)O[C@H]1[C@H](O)C[C@](O)(C(=O)O)C[C@H]1O", "1075.7 ± 52.9 ng/mL"],
  ["O=c1cc(-c2ccc(O)cc2)oc2cc(O)cc(O)c12", "1063.8 ± 62.8 ng/mL"],
  ["COc1ccc(-c2cc(=O)c3c(O)cc(O)cc3o2)cc1", "977.4 ± 57.9 ng/mL"],
  ["O=C(/C=C/c1ccc(O)c(O)c1)O[C@@H]1C[C@](O)(C(=O)O)C[C@@H](O)[C@H]1O", "1117.1 ± 2.0 ng/mL"],
  ["O=c1cc(-c2ccc(O)cc2)oc2cc(O[C@@H]3O[C@H](CO)[C@@H](O)[C@H](O)[C@H]3O)cc(O)c12 [Apigenin 7-glucoside]", "1108.3 ± 25.6 ng/mL"],
  ["O=C(/C=C/c1ccc(O)c(O)c1)O[C@@H]1[C@H](O)C[C@@](O)(C(=O)O)C[C@H]1OC(=O)/C=C/c1ccc(O)c(O)c1", "1080.3 ± 37.8 ng/mL"],
  ["O=c1c(O[C@@H]2O[C@H](CO)[C@H](O)[C@H](O)[C@H]2O)c(-c2ccc(O)c(O)c2)oc2cc(O)cc(O)c12 [Hyperoside]", "997.8 ± 19.4 ng/mL"]
]}

====

Assay: Pharmacokinetic study in rat plasma after oral administration of Flos Chrysanthemi extract (UPLC-MS/MS)
Type: in vivo, Sprague-Dawley rats
Settings: male, Sprague-Dawley, rat; rats, oral Flos Chrysanthemi extract 10 g/kg, plasma, n = 6

{"columns": ["molecule", "unit-info", "AUC(0-inf)"],
 "data": [
  ["O=C(/C=C/c1ccc(O)c(O)c1)O[C@@H]1[C@H](O)C[C@@](O)(C(=O)O)C[C@H]1OC(=O)/C=C/c1ccc(O)c(O)c1 [Isochlorogenic acid C]", "ng·h/mL", 405],
  ["O=C(O)[C@H]1O[C@@H](Oc2cc(O)c3c(=O)cc(-c4ccc(O)c(O)c4)oc3c2)[C@H](O)[C@@H](O)[C@@H]1O [Luteolin 7-O-glucuronide]", "ng·h/mL", 6730],
  ["O=C(/C=C/c1ccc(O)c(O)c1)O[C@H]1[C@H](O)C[C@](O)(C(=O)O)C[C@H]1O [Cryptochlorogenic acid]", "ng·h/mL", 431],
  ["O=c1cc(-c2ccc(O)cc2)oc2cc(O[C@@H]3O[C@H](CO)[C@@H](O)[C@H](O)[C@H]3O)cc(O)c12 [Apigenin 7-glucoside]", "ng·h/mL", 1470],
  ["O=c1cc(-c2ccc(O)c(O)c2)oc2cc(O[C@@H]3O[C@H](CO)[C@@H](O)[C@H](O)[C@H]3O)cc(O)c12 [Cynaroside]", "ng·h/mL", 19100],
  ["O=c1cc(-c2ccc(O)c(O)c2)oc2cc(O)cc(O)c12 [Luteolin]", "ng·h/mL", 25100],
  ["O=c1cc(-c2ccc(O)cc2)oc2cc(O)cc(O)c12 [Apigenin]", "ng·h/mL", 3090],
  ["O=C(/C=C/c1ccc(O)c(O)c1)O[C@@H]1C[C@](O)(C(=O)O)C[C@@H](O)[C@H]1O [Chlorogenic acid]", "ng·h/mL", 494]
]}
